Assay: Antioxidant activity assessed as FRAP radical scavenging activity by measuring reduction of Fe3+ complex to Fe2+ analogue incubated for 5 mins by FRAP assay
Type: functional
Parameters: reference not given here
PROPERTY_NAME: Activity

>  <COMPOUND>
O=C1NC(=[Se])NC1Cc1ccc(Br)cc1 (stereo unspecified)

>  <RESULT_VALUE>
180 µM

$$$$
>  <COMPOUND>
O=C1NC(=[Se])NC1Cc1ccccc1 (stereo unspecified)

>  <RESULT_VALUE>
219 µM

$$$$
>  <COMPOUND>
O=C1NC(=[Se])NC1Cc1ccc(F)cc1 (stereo unspecified)

>  <RESULT_VALUE>
439 µM

$$$$
>  <COMPOUND>
COc1ccc(CC2NC(=[Se])NC2=O)cc1 (stereo unspecified)

>  <RESULT_VALUE>
314 µM

$$$$
>  <COMPOUND>
O=C1NC(=[Se])NC1Cc1ccc(C(F)(F)F)cc1 (stereo unspecified)

>  <RESULT_VALUE>
363 µM

$$$$
>  <COMPOUND>
N[C@@H](CCC(=O)N[C@@H](CS)C(=O)NCC(=O)O)C(=O)O

>  <RESULT_VALUE>
94 µM

$$$$
>  <COMPOUND>
O=C1O[C@H]([C@@H](O)CO)C(O)=C1O

>  <RESULT_VALUE>
1630 µM

$$$$
>  <COMPOUND>
O=C1NC(=[Se])NC1Cc1ccc(Cl)cc1 (stereo unspecified)

>  <RESULT_VALUE>
421 µM

$$$$
>  <COMPOUND>
Cc1ccc(CC2NC(=[Se])NC2=O)cc1 (stereo unspecified)

>  <RESULT_VALUE>
116 µM

$$$$
>  <COMPOUND>
O=C1NC(=[Se])NC1Cc1cccc2ccccc12 (stereo unspecified)

>  <RESULT_VALUE>
271 µM

$$$$

---

Quick reference: Activity of the listed items.
Experiment: Glutathione peroxidase-like activity assessed as decrease in NADPH level at 20 uM in the presence of cumene hydroperoxide and glutathione reductase by UV-VIS spectrophotometer analysis (reference value: 7 microM/min)
Type: physicochemical
PROPERTY_NAME: Activity (µM/min)

>  <COMPOUND>
O=C1NC(=[Se])NC1Cc1ccc(F)cc1 (stereo not given)

>  <VALUE_UNIT>
µM/min

>  <RESULT_VALUE>
13

$$$$
>  <COMPOUND>
O=C1NC(=[Se])NC1Cc1ccc(Br)cc1 (stereo not given)

>  <VALUE_UNIT>
µM/min

>  <RESULT_VALUE>
17

$$$$
>  <COMPOUND>
O=C1NC(=[Se])NC1Cc1cccc2ccccc12 (stereo not given)

>  <VALUE_UNIT>
µM/min

>  <RESULT_VALUE>
18

$$$$
>  <COMPOUND>
O=C1NC(=[Se])NC1Cc1ccccc1 (stereo not given)

>  <VALUE_UNIT>
µM/min

>  <RESULT_VALUE>
18

$$$$
>  <COMPOUND>
COc1ccc(CC2NC(=[Se])NC2=O)cc1 (stereo not given)

>  <VALUE_UNIT>
µM/min

>  <RESULT_VALUE>
13

$$$$
>  <COMPOUND>
Cc1ccc(CC2NC(=[Se])NC2=O)cc1 (stereo not given)

>  <VALUE_UNIT>
µM/min

>  <RESULT_VALUE>
18

$$$$
>  <COMPOUND>
NCC[Se][Se]CCN

>  <VALUE_UNIT>
µM/min

>  <RESULT_VALUE>
66

$$$$
>  <COMPOUND>
O=c1c2ccccc2[se]n1-c1ccccc1

>  <VALUE_UNIT>
µM/min

>  <RESULT_VALUE>
33

$$$$
>  <COMPOUND>
O=C1NC(=[Se])NC1Cc1ccc(Cl)cc1 (stereo not given)

>  <VALUE_UNIT>
µM/min

>  <RESULT_VALUE>
27

$$$$
>  <COMPOUND>
O=C1NC(=[Se])NC1Cc1ccc(C(F)(F)F)cc1 (stereo not given)

>  <VALUE_UNIT>
µM/min

>  <RESULT_VALUE>
32

$$$$
